assay.target: T1, human FAPα on CHO-K1-hFAPα cells (human, UniProt Q12884 1-760)
T1 construct: whole, on cells; also called cell-surface FAPα
T1 sequence (looked up): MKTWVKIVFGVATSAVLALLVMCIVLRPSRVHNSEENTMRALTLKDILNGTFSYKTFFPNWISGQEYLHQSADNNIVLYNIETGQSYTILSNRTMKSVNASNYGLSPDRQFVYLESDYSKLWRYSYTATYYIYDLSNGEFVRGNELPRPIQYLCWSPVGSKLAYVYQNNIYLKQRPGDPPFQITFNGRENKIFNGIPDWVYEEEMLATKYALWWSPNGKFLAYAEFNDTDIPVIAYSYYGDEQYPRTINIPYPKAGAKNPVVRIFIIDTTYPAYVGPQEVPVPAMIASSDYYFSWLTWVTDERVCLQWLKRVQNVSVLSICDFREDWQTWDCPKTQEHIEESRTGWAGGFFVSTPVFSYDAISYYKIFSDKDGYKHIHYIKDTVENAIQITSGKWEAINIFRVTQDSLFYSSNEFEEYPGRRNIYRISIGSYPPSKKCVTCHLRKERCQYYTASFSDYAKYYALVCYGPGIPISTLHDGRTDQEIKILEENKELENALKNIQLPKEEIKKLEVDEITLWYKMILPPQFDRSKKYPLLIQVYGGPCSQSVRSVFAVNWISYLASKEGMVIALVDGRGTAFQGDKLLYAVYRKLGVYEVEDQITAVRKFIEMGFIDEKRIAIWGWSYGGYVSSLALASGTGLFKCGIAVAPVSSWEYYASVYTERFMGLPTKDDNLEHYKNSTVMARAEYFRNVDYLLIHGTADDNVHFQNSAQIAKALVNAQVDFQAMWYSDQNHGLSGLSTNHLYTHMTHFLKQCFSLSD
assay.text: flow cytometry on CHO-K1-hFAPα cells
attribute.measured: EC50 (ng/mL)
Answer with a number only, understood to be in ng/mL.

**Query** Report EC50 for J59 (antibody, V domains shown, Tested as a mAb) VH: QVQLLESGGGVVQPGRSLRLSCAASGFTFSSYGMHWVRQAPGKGLEWVAVISYDGSNKYYADSVKGRFTISRDNSKNTLYLQMNSLRADDTAVYYCARESYTGLGSFLHWGQGTLVTVSA VL: NIQLTQSPSSLSASVGDRVTITCRASQTISNYLNWYQQKPGKAPKLLISAASSLQGGVPSRFSGSGSGTDFTLAISSLQPEDSATYYCQYWGTFGQGTKLEIK please.
**Result** 0.029
